system: Staphylococcus aureus; assay: In vitro antibacterial activity against Staphylococcus aureus 663E.; type: functional
# reported log10 of MIC; entries follow
Short version: log10 scale, MIC, µg/mL.

Record summary for CO[C@@]12CCCCC1=C(C(=O)[O-])N1C(=O)[C@H]([C@@H](C)O)[C@H]12.[K+] : reported log10 of MIC = 0.60

Looking up CO[C@H]1CCC[C@@H]2C1=C(C(=O)[O-])N1C(=O)[C@H]([C@@H](C)O)C21.[K+] (some centres not stated) , I see its log10 of MIC listed as 0.30

Continuing:
Lab note: measured log10 of MIC of CO[C@]12CCCCC1=C(C(=O)[O-])N1C(=O)[C@H]([C@@H](C)O)[C@H]12.[K+] was 0.60

The recorded log10 of MIC for CO[C@@H]1CCC[C@@H]2C1=C(C(=O)[O-])N1C(=O)[C@H]([C@@H](C)O)C21.[K+] (some centres not stated) is 0.30

Note to self: log10 of MIC recorded for CO[C@@H]1CCC[C@H]2C1=C(C(=O)[O-])N1C(=O)[C@H]([C@@H](C)O)C21.[K+] (some centres not stated) was -0.30

According to the records, this compound C[C@@H](O)[C@H]1C(=O)N2C(C(=O)O)=C(SCCNC=N)C[C@H]12.O displays log10 of MIC of -0.92

Consider CO[C@H]1CCC[C@H]2C1=C(C(=O)[O-])N1C(=O)[C@H]([C@@H](C)O)C21.[K+] (some centres not stated) . Its measured log10 of MIC is -0.60
